Test system: K4 kissing-loop RNA reporter;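 also: bound reporter read as fluorescence of individual clusters on recovered sequencing chips by microscopy, with normalized cluster intensities fitted with a binding model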
Test: apparent KD of K4 kissing-loop reporter; higher = weaker reporter binding
Conditions: Eterna round: R107; input ligand: arginine 13.2 mM
Decision: apparent KD of K4 kissing-loop reporter compared against 0.2 µM; not below it gives T, below it gives F.

residue_string	study_target	assigned_class
UGAUACCAGACUGAUACCAGCUAGUGAUGUUAGCUGAUAAACAAACAGGCAAAGCCUGCUAGCCCUUGGCAGCAGUCUGGUAUCU [TheoBX 12 #SwitchBubble #StaticStem]	K4 kissing-loop RNA reporter	F
CCCGCGGCGGGAAACCGUCGCGGGAAGGAAGGAGCGGCGAAGAAGCCAGGUAGGUCGCCUAUUGACAGUGAUGUUGUUAUAUAGA [#11]	K4 kissing-loop RNA reporter	T
GGGUCAGCGCGAAGGAGCGCCCUGACAGGUUGCUGCCGUGGGCAGUGAUGUUGCUCAGUCCGGCAGGUAGGUCGCGUGCUGACCC	K4 kissing-loop RNA reporter	F
GGGCAUGAUACGAUAAAAUAGUGGAGAGAUACCAGCGUUUUAGAUCGCCCUUGGCAGCUCUCGAGUGAUGUUCGGGUAGCUCUGA [Onedra]	K4 kissing-loop RNA reporter	F
GGCACUUUUGGUAGAAAACAUCUACCUCUAUAGGAUAUGCCGAAAGGCAGAAGGAUAGACCUACAGAGUGAUGUUCUGCGUGCCU	K4 kissing-loop RNA reporter	F
GCACUACAAUAAGGAUAUCAUAAAAUGGAGAGCGAGUGAUGUUCGCAGAGACACCUAUUUUUCCUAUGAGAAGGUAUUAACGCCG [theeternabot_sameState_KL_FMN_B_40]	K4 kissing-loop RNA reporter	F
AAGAAGAAUGGAAGGAGCGAGCAGAAAUAACCAGUGAUGUUGGAAAGCCUUAUUGCUUAAGCUCAGGUAGGUCGCCAAGAAAAGA [Mostly trial and error]	K4 kissing-loop RNA reporter	F
ACGACGCAUAGUGAUACCAGCAUUAUAUGAGUGAUGUUCUACCUAAAAUGGUAAUAAUUAUGCCCUUGGCAGCACUAUGCGUCAG [KL-SSTheoB3]	K4 kissing-loop RNA reporter	T
